Experiment: Aqueous dissolution/solubility in fasting state simulated intestinal fluid (FaSSIF) pH 6.5 after 30 min in FaSSGF
Format: physicochemical
Conditions: fasting state simulated intestinal fluid (FaSSIF), thermodynamic from solid; pH 6.5 FaSSIF buffer, after 30 min FaSSGF, 120 min; read-out: Conc (solubility)
experimental.endpoint: solubility at 120 min (µg/mL)
Give the value, in units of µg/mL, as a plain number.

Item CC(C)Nc1cc(-c2c[nH]c(C(=O)N[C@H](CO)c3cccc(Cl)c3)c2)c(Cl)cn1 [Malonate Form A] has what recorded solubility at 120 min?
110

###

Assay: Aqueous dissolution/solubility in fasting state simulated intestinal fluid (FaSSIF) pH 6.5 after 30 min in FaSSGF
Assay type: physicochemical
Conditions: fasting state simulated intestinal fluid (FaSSIF), thermodynamic from solid; pH 6.5 FaSSIF buffer, after 30 min FaSSGF, 300 min; read-out: Conc (solubility)
experimental.endpoint: solubility at 300 min (µg/mL)
The response must be a number in µg/mL with no trailing unit.

Entry CC(C)Nc1cc(-c2c[nH]c(C(=O)N[C@H](CO)c3cccc(Cl)c3)c2)c(Cl)cn1 [Malonate Form A] has what solubility at 300 min?
115

###

Test: Aqueous dissolution/solubility in fasting state simulated intestinal fluid (FaSSIF) pH 6.5 after 30 min in FaSSGF
Type: physicochemical
Details: fasting state simulated intestinal fluid (FaSSIF), thermodynamic from solid; pH 6.5 FaSSIF buffer, after 30 min FaSSGF, 180 min; read-out: Conc (solubility)
experimental.endpoint: solubility at 180 min (µg/mL)
Report the value in µg/mL with no unit label.

Find the recorded solubility at 180 min belonging to CC(C)Nc1cc(-c2c[nH]c(C(=O)N[C@H](CO)c3cccc(Cl)c3)c2)c(Cl)cn1 [Malonate Form A] and report it.
110

###

Assay: physchem
Settings: pH 1.6, fassgf or other biorelevant, thermodynamic from solid
experimental.endpoint: solubility at 30 min (µg/mL)
Write down the numeric answer in µg/mL and omit the unit.

Name the recorded solubility at 30 min for CC(C)Nc1cc(-c2c[nH]c(C(=O)N[C@H](CO)c3cccc(Cl)c3)c2)c(Cl)cn1 [Malonate Form A] .
369
